Known IC50 GM-CSF, TF-1 proliferation of a selection of binders
Target: T1, human CD131 (human, UniProt P32927 17-897)
T1 sequence: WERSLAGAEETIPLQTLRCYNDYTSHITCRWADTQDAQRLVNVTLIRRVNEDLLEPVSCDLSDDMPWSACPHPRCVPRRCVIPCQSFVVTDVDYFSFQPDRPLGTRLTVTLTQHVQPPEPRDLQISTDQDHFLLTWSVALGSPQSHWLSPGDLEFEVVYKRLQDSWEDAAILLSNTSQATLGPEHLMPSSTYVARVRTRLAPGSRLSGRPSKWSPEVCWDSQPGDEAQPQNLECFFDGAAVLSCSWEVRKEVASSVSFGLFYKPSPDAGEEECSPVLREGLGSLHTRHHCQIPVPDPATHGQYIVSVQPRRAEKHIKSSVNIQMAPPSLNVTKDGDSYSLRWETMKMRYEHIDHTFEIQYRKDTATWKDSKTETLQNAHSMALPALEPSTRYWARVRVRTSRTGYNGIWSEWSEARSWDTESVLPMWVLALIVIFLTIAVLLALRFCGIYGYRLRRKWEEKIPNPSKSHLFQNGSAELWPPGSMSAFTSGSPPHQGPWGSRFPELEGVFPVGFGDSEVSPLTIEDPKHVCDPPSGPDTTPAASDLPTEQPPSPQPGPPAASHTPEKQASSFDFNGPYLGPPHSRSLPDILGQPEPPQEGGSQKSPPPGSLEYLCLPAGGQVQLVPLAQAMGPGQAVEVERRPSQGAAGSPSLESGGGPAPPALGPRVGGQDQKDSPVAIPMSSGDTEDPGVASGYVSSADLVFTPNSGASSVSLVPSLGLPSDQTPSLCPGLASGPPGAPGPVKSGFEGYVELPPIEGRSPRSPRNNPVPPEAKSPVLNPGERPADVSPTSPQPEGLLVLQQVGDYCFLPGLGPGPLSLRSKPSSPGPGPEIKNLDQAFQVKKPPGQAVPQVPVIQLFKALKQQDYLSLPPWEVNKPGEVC
Test: cell-based or functional assay
The response must be a number in nM with no trailing unit.

Would you please look over these solved cases?
BINDER	MEAS_VALUE
9A2-VR1 (antibody, V domains shown) VH: EVQLLESGGGLVQPGGSLRLSCAASGFTFSHYHMLWVRQAPGKGLEWVSSIRSSGGFTYYADSVKGRFTISRDNSKNTLYLQMNSLRAEDTAVYYCARFYDSFFDIWGQGTMVTVSS VL: DIQMTQSPSSVSASVGDRVTITCRASQGIRPFMAWYQQKPGKAPKLLIYAASSLQSGVPSRFSGSGSGTDFTLTISSLQPEDFATYYCQQANSFPITFGQGTRLEIKR	294
9A2-VR9 (antibody, V domains shown) VH: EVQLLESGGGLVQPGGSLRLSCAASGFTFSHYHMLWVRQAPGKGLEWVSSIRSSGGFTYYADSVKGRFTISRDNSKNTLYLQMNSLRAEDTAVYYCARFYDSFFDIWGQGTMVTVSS VL: DIQMTQSPSSVSASVGDRVTITCRASQGIRPFIDWYQQKPGKAPKLLIYAASSLQSGVPSRFSGSGSGTDFTLTISSLQPEDFATYYCQQANSFPITFGQGTRLEIKR	72.7
9A2-VR32 (antibody, V domains shown) VH: EVQLLESGGGLVQPGGSLRLSCAASGFTFSHYHMLWVRQAPGKGLEWVSSISGSVRSTYYADSVKGRFTISRDNSKNTLYLQMNSLRAEDTAVYYCARFYDSFFDIWGQGTMVTVSS VL: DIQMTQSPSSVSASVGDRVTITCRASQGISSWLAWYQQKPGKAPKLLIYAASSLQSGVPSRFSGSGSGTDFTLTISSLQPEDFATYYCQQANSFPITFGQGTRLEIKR	31.2
9A2-VR26 (antibody, V domains shown) VH: EVQLLESGGGLVQPGGSLRLSCAASGFTFIHYRVHWVRQAPGKGLEWVSSIRSSGGFTYYADSVKGRFTISRDNSKNTLYLQMNSLRAEDTAVYYCARFYDSFFDIWGQGTMVTVSS VL: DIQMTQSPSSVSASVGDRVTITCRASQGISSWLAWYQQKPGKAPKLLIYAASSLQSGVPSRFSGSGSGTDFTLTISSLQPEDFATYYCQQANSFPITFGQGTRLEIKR	4.6

query: Entry 9A2-VR35 (antibody, V domains shown) VH: EVQLLESGGGLVQPGGSLRLSCAASGFTFSHYHMLWVRQAPGKGLEWVSSINGFGRNTYYADSVKGRFTISRDNSKNTLYLQMNSLRAEDTAVYYCARFYDSFFDIWGQGTMVTVSS VL: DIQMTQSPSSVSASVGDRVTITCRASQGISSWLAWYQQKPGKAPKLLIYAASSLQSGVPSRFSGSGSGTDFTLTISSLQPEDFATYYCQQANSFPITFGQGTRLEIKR has what IC50 GM-CSF, TF-1 proliferation?
result: 76
